Reported melting point values follow for various compounds
Property: melting point

- Compound: "COc1ccc(N2C(=O)N(c3ccc(C#N)c(C(F)(F)F)c3)C(=O)C2(C)CO)cc1 (stereo not drawn) [7f]"
  Property: "melting point"
  Result: "128 to 130 °C"
- Compound: "Cc1ccc(N2C(=S)N(c3ccc(C#N)c(C(F)(F)F)c3)C(=O)C2(C)CO)cc1 (stereo not drawn) [6b]"
  Property: "melting point"
  Result: "190 to 192 °C"
- Compound: "CNC(=O)c1ccc(N2C(=S)N(c3cnc(C#N)c(C(F)(F)F)c3)C(=O)C2(C)CO)cc1F (stereo not drawn) [19c]"
  Property: "melting point"
  Result: "127 to 129 °C"
- Compound: "CC1(CO)C(=O)N(c2ccc(C#N)c(C(F)(F)F)c2)C(=O)N1c1ccc(Br)cc1 (stereo not drawn) [7e]"
  Property: "melting point"
  Result: "102 to 104 °C"
- Compound: "CC1(CO)C(=O)N(c2ccc(C#N)c(C(F)(F)F)c2)C(=S)N1c1ccc(F)cc1 (stereo not drawn) [6c]"
  Property: "melting point"
  Result: "231 to 233 °C"
- Compound: "CC1(CO)C(=O)N(c2cnc(C#N)c(C(F)(F)F)c2)C(=S)N1c1ccc(F)cc1 (stereo not drawn) [19b]"
  Property: "melting point"
  Result: "181 to 183 °C"
- Compound: "CC1(CO)C(=O)N(c2ccc(C#N)c(C(F)(F)F)c2)C(=S)N1c1ccc(Cl)cc1 (stereo not drawn) [6d]"
  Property: "melting point"
  Result: "205 to 207 °C"
- Compound: "CC1(CO)C(=O)N(c2ccc(C#N)c(C(F)(F)F)c2)C(=O)N1c1ccc(O)cc1 (stereo not drawn) [11b]"
  Property: "melting point"
  Result: "110 to 112 °C"
- Compound: "CC(=O)Nc1ccc(N2C(=S)N(c3ccc(C#N)c(C(F)(F)F)c3)C(=O)C2(C)CO)cc1 (stereo not drawn) [compound 9]"
  Property: "melting point"
  Result: "126 to 128 °C"
- Compound: "CC1(CO)C(=O)N(c2ccc(C#N)c(C(F)(F)F)c2)C(=S)N1c1ccc(C(F)(F)F)cc1 (stereo not drawn) [6i]"
  Property: "melting point"
  Result: "178 to 180 °C"
- Compound: "CC1(CO)C(=O)N(c2ccc(C#N)c(C(F)(F)F)c2)C(=S)N1c1ccc(O)cc1 (stereo not drawn) [11a]"
  Property: "melting point"
  Result: "203 to 205 °C"
- Compound: "CC1(CO)C(=O)N(c2ccc(C#N)c(C(F)(F)F)c2)C(=S)N1c1ccccc1 (stereo not drawn) [6a]"
  Property: "melting point"
  Result: "216 to 219 °C"
